These measurements were taken from paper PMC9822194.

System: SCC-9 (OSCC cells)
assay remarks: MTT cell viability assay (cytotoxicity), SCC9
Assay type: cell-based, Human
experimental context: Homo sapiens, SCC-9, 48 h, read-out: SCC9—Oral Cancer IC50
value kind: IC50 (µM)
Numbers only, in µM.

{"molecule": "CC(C)=CC[C@@H](O)C1=CC(=O)c2c(O)ccc(O)c2C1=O [Shikonin, reference compound]", "observed result": 1.8}

Ask: Given the entry CC(C)=CCC1=C(O)C(=O)c2ccccc2C1=O [Lapachol, reference compound] , report its measured IC50.
Reply: 42.1

====

Test system: SCC-25 cells
assay remarks: MTT cell viability assay, SCC25
Type: cell-based, Human
experimental context: MTT, 48 h; read-out: SCC25 IC50
value kind: IC50 (µM)
Answers are plain numbers, in µM.

Ask: Given the entry `N.N.O=C([O-])C1(C(=O)[O-])CCC1.[Pt+2]` , report its measured IC50.
Reply: 264

====

System: SCC-4 cells
assay remarks: MTT cell viability assay, SCC4
Assay type: cell-based, Human
experimental context: MTT, 48 h; read-out: SCC4 IC50
value kind: pIC50
Numbers only, as −log10 of the molar value.

Ask: Given the entry `N.N.O=C([O-])C1(C(=O)[O-])CCC1.[Pt+2]` , report its measured pIC50.
Reply: 3.71

====

Tested on: OSCC cell lines (SCC 4, SCC-9 and SCC-25)
assay remarks: MTT assay, mean over three OSCC cell lines and average selectivity index
Format: cell-based, Human
experimental context: Homo sapiens, read-out: Oral Tumor Cells Mean IC50
value kind: IC50 (nM)
Numbers only, in nM.

Ask: Checklist item: IC50 tested on OSCC cell lines (SCC 4, SCC-9 and SCC-25), entry CC(C)=CC[C@@H](O)C1=CC(=O)c2c(O)ccc(O)c2C1=O [Shikonin, reference compound] , value?
Reply: 1740
